ASSAY: Acute toxicity in mice
COND: mouse, in vivo, iv; male ICR mice; i.v.; 7 days observation; up and down method; base; read-out: (C) LD50 in mice
MEASURED_PARAMETER: LD50 at 168 h (mg/kg)
Field format: number, assumed mg/kg, no unit text.

Example molecules with recorded LD50 at 168 h:
| INPUT_SMILES | MEASURED_PARAMETER | RESULT_UNITS | DATA_VALUE |
| --- | --- | --- | --- |
| N#CN=C(N)NCCSCc1csc(NC(=N)N)n1 | LD50 at 168 h | mg/kg | 94.6 |
| CN/C(=N/CCSCc1nc[nH]c1C)NC#N | LD50 at 168 h | mg/kg | 152 |

Which value of LD50 at 168 h has been reported for NC(N)=Nc1nc(CSCCC(N)=NS(N)(=O)=O)cs1 in the records?
244

Would you mind telling me what LD50 at 168 h value was observed for CS(=O)(=O)NC(=N)CCSCc1csc(NC(=N)N)n1 ?
152
